- Test system: 422866-222-R5-J1-PDC spheroids with HUVEC/MSC, viability
- experimentSummary: Anticancer human tumor 422866-222-R5-J1-PDC patient-derived pancreatic adenocarcinoma cell line growth inhibition [GQUAD]
- conditionsUsed: second compound 10 µM; first compound 0.00999 µM; stronger effect = lower value
Hi! Just check whether viability, T/C is below 90%. Below gives 1.0, equal or above gives 0.0.

See these solved cases before continuing.
1) CC[C@@]1(O)C(=O)OCc2c1cc1n(c2=O)Cc2cc3c(CN(C)C)c(O)ccc3nc2-1 + Cc1cnc(CNC(=O)c2c(=O)c3ccc(N4CCCN(C)CC4)nc3n3c2sc2ccccc23)cn1
1.0
2) Cn1ncnc1[C@H]1c2n[nH]c(=O)c3cc(F)cc(c23)N[C@@H]1c1ccc(F)cc1 + Cc1cnc(CNC(=O)c2c(=O)c3ccc(N4CCCN(C)CC4)nc3n3c2sc2ccccc23)cn1
1.0

hey, is viability, T/C for Cc1[nH]c2ccccc2c1CCNCc1ccc(/C=C/C(=O)NO)cc1 + CN(C)c1ccc(Nc2c3ccc(NC(=O)CCN4CCCC4)cc3nc3cc(NC(=O)CCN4CCCC4)ccc23)cc1 lower than 90% or not?
0.0

Quick check: does CCc1c2c(nc3ccc(O)cc13)-c1cc3c(c(=O)n1C2)COC(=O)[C@]3(O)CC + CN(C)c1ccc(Nc2c3ccc(NC(=O)CCN4CCCC4)cc3nc3cc(NC(=O)CCN4CCCC4)ccc23)cc1 have viability, T/C under 90%?
1.0

In plain terms, does Cn1ncnc1[C@H]1c2n[nH]c(=O)c3cc(F)cc(c23)N[C@@H]1c1ccc(F)cc1 + Cc1[nH]c2ccc(F)cc2c1-c1nc2c3cccnc3c3ncccc3c2[nH]1 come in under 90% for viability, T/C?
1.0

Please determine if Cn1ncnc1[C@H]1c2n[nH]c(=O)c3cc(F)cc(c23)N[C@@H]1c1ccc(F)cc1 + CN(C)c1ccc(Nc2c3ccc(NC(=O)CCN4CCCC4)cc3nc3cc(NC(=O)CCN4CCCC4)ccc23)cc1 is below 90% in terms of viability, T/C.
0.0

* * *

- Tested on: 422866-222-R5-J1-PDC spheroids with HUVEC/MSC, viability
- experimentSummary: Anticancer human tumor 422866-222-R5-J1-PDC cell line growth inhibition [GQUAD];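 further: spheroids exposed to compounds for seven days before reading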
- conditionsUsed: curve of first compound; second compound 3.16 µM
pIC50: −log10 of the molar value.
Outcome label depends on pIC50 relative to 6: at/above gives T, below gives F.

For orientation, consider the following solved cases.
1) CCc1c2c(nc3ccc(O)cc13)-c1cc3c(c(=O)n1C2)COC(=O)[C@]3(O)CC + Cc1cnc(CNC(=O)c2c(=O)c3ccc(N4CCCN(C)CC4)nc3n3c2sc2ccccc23)cn1
T
2) Cc1cccc(N(C)C(=O)C2C(O)CCN2c2nc(C)cc(C(F)(F)F)c2C#N)c1 (stereo unspecified) + Cc1[nH]c2ccc(F)cc2c1-c1nc2c3cccnc3c3ncccc3c2[nH]1
F
3) COc1ccc([C@@H](O)c2cc(-c3ncnc4cc(N5CCOCC5)ccc34)c(F)cc2Cl)nn1 + CN(C)c1ccc(Nc2c3ccc(NC(=O)CCN4CCCC4)cc3nc3cc(NC(=O)CCN4CCCC4)ccc23)cc1
F
4) C=CC(=O)N1CCN(c2nc(=O)n(-c3c(C)ccnc3C(C)C)c3nc(-c4c(O)cccc4F)c(F)cc23)C(C)C1 (stereo unspecified) + Cc1cnc(CNC(=O)c2c(=O)c3ccc(N4CCCN(C)CC4)nc3n3c2sc2ccccc23)cn1
T
5) O=c1[nH]cc(F)c(=O)[nH]1 + CN(C)c1ccc(Nc2c3ccc(NC(=O)CCN4CCCC4)cc3nc3cc(NC(=O)CCN4CCCC4)ccc23)cc1
F
6) O=C(c1cc(Cc2n[nH]c(=O)c3ccccc23)ccc1F)N1CCN(C(=O)C2CC2)CC1 + Cc1[nH]c2ccc(F)cc2c1-c1nc2c3cccnc3c3ncccc3c2[nH]1
F

Reported pIC50 reaches at least 6 for CC1COCCN1c1cc(-c2ccnn2C)c2ccnc(-c3ccn[nH]3)c2n1 (stereo unspecified) + Cc1cnc(CNC(=O)c2c(=O)c3ccc(N4CCCN(C)CC4)nc3n3c2sc2ccccc23)cn1 ?
F

Is pIC50 for CC1COCCN1c1cc(-c2ccnn2C)c2ccnc(-c3ccn[nH]3)c2n1 (stereo unspecified) + CN(C)c1ccc(Nc2c3ccc(NC(=O)CCN4CCCC4)cc3nc3cc(NC(=O)CCN4CCCC4)ccc23)cc1 at or above 6?
T

Just for reference, PubChem BioAssay AID2060511 is where these values come from.
